test system: DND41; experiment: IC50 in leukemia cell lines; format: cell-based; conditions: DND41, T-ALL
property.measured: IC50
Reply with the number, then its unit.

Recorded IC50 of CCn1cc(/C=C2\Oc3cc(OCC#N)ccc3C2=O)c2cc(OC)ccc21 , please.
210 nM
